System: BXPC3 human pancreatic cancer cells
Experiment: Cell kill screening, CellTiter Glo viability assay, BXPC3
Type: cell-based
Conditions: BXPC-3, 100 μM, 24 hours treatment, 0.5% serum and 0.05% DMSO, relative to untreated control, read-out: % avg live cells @ 100 μM (% Viable Cells Remaining)
Each entry belongs to exactly one class, chosen by where its viability at 100 µM falls: low class: < 5%; middle class: ≥ 5% and < 30%; high class: ≥ 30%

Observe how each entry below is paired with its result.
molecule	answer label
O=C(CCCCC(CCSCc1ccccc1)SCc1ccccc1)NCCN1CCOCC1 (stereo not shown) [K]	low class
CCN(CC)C(=O)CCCCC(CCSCc1ccccc1)SCc1ccccc1 (stereo not shown) [L]	middle class
O=C(O)CCCCC(CCNC(=O)OCc1ccccc1)NC(=O)OCc1ccccc1 (stereo not shown) [G]	high class
O=C(O)CCCCCCC(CCSCc1ccccc1)SCc1ccccc1 (stereo not shown) [C]	middle class
O=CCCCCC(CCSCc1ccccc1)SCc1ccccc1 (stereo not shown) [A]	middle class

input: GET /class?item= CCN(CC)CCNC(=O)CCCCC(CCSCc1ccccc1)SCc1ccccc1 (stereo not shown) [M]
output: low class

input: GET /class?item= O=C(CCCCC(CCSCc1ccccc1)SCc1ccccc1)N1CCOCC1 (stereo not shown) [J]
output: low class

input: GET /class?item= O=C(CCCCC(CCSCc1ccccc1)SCc1ccccc1)NCCS(=O)(=O)O (stereo not shown) [N]
output: high class

input: GET /class?item= NC(=O)CCCCC(CCSCc1ccccc1)SCc1ccccc1 (stereo not shown) [I]
output: low class

input: GET /class?item= O=C(CCCCC(CCSCc1ccccc1)SCc1ccccc1)OCc1ccccc1 (stereo not shown) [H]
output: high class
